Measurement Description: Pharmacokinetic Determination (Mouse PK)
Type: in vivo, female CD-1 mice
Experimental Setup: female, CD-1, plasma, IV, 3.0 mg/kg
Experimental Readout: clearance (mL/min/kg)
The reply should contain only the number, in mL/min/kg.

Look over these answered cases.
C[C@@H]1Cc2c([nH]c3ccccc23)[C@@H](c2cnc(NC3CN(CCCF)C3)cn2)N1C12CC(C1)C2: 53.5
C[C@@H]1Cc2c([nH]c3ccccc23)[C@@H](c2ccc(N[C@@H]3CN(CCCF)C[C@H]3F)cc2)N1C12CC(C1)C2: 66.1
C[C@@H]1Cc2c([nH]c3ccccc23)[C@@H](c2c(F)cc(NC3CN(CCCF)C3)cc2F)N1C12CC(C1)C2: 24.2

Proceeding to the next compound to report its clearance.
Check the records and state clearance for C[C@@H]1Cc2c([nH]c3ccccc23)[C@@H](c2ccc(N[C@H]3CCN(CCCF)C3)cc2)N1C12CC(C1)C2
40

###

Measurement Description: Pharmacokinetic Determination (Mouse PK)
Type: in vivo, female CD-1 mice
Experimental Setup: female, CD-1, plasma, PO, 10.0 mg/kg
Experimental Readout: AUC(0-t) (µM·h)
Give just the number in µM·h; leave the unit off.

Examples from the recorded data:
C[C@@H]1Cc2c([nH]c3ccccc23)[C@@H](c2ccc(N[C@@H]3CN(CCCF)C[C@H]3F)cc2)N1C12CC(C1)C2: 2.94
C[C@@H]1Cc2c([nH]c3ccccc23)[C@@H](c2c(F)cc(O[C@H]3CCN(CCCF)C3)cc2F)N1C12CC(C1)C2 (single isomer, unassigned): 4.84
C[C@@H]1Cc2c([nH]c3ccccc23)[C@@H](c2ccc(NC3CN(CCCF)C3)cc2)N1C12CC(C1)C2: 3.46
CCCN1CC(Oc2ccc([C@@H]3c4[nH]c5ccccc5c4C[C@@H](C)N3C34CC(C3)C4)cc2)C1: 1.31

Report AUC(0-t) for C[C@@H]1Cc2c([nH]c3ccccc23)[C@@H](c2ccc(O[C@H]3CCN(CCCF)C3)nc2)N1C12CC(C1)C2 (single isomer, unassigned)
0.527

Let me know recorded AUC(0-t) for CCCN1CC(Nc2ccc([C@@H]3c4[nH]c5ccccc5c4C[C@@H](C)N3C34CC(C3)C4)cc2)C1 , thanks.
3

Report AUC(0-t), nothing else, for this compound: C[C@@H]1Cc2c([nH]c3ccccc23)[C@@H](c2c(F)cc(O[C@@H]3CCN(CCCF)C3)cc2F)N1C12CC(C1)C2 (single isomer, unassigned)
4.84

Identify measured AUC(0-t) associated with CCCN1CC[C@H](Nc2ccc([C@@H]3c4[nH]c5ccccc5c4C[C@@H](C)N3C34CC(C3)C4)cc2)C1
3.73

Look up and state reported AUC(0-t) for C[C@@H]1Cc2c([nH]c3ccccc23)[C@@H](c2c(F)cc(N[C@H]3CCN(CCCF)C3)cc2F)N1C12CC(C1)C2
5
